- tested system: P2Y1 receptor (Rattus norvegicus)
- Sequence (P49651 whole entry): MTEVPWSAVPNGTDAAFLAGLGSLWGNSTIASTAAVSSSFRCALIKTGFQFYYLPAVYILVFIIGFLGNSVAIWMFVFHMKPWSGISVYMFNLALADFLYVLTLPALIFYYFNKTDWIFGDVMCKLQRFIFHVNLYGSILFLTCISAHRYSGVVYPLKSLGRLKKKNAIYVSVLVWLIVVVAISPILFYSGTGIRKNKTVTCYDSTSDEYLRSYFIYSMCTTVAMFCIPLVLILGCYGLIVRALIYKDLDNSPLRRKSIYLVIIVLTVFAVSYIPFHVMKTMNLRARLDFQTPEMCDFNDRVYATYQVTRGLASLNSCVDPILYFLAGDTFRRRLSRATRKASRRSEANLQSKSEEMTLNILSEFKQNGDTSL
- measurement description: agonist-induced intracellular calcium mobilization in RBL-2H3 cells
- Format: cell-based
quantity measured: pEC50
The meaning of pEC50 here: minus log10 of the concentration in molar units.

Problem: Please respond with reported pEC50 (system P2Y1 receptor (Rattus norvegicus)) for CSc1nc(N)c2ncn([C@@H]3O[C@H](COP(=O)(O)OP(=O)(O)O)[C@@H](O)[C@H]3O)c2n1 [2-MeSADP] .
Solution: 7.42
